Each recorded value in this set is attributed to patent US20230405133A1.

measured target: T1, Human VEGF 165 (human, UniProt P15692-4 27-191)
T1 construct: Loaded on the BLI probe as the ligand; also called BLI ligand Human VEGF 165 (Avi tag, R&D Systems AVI-293-050); not shown: Avi tag
T1 sequence (P15692 other isoform, or with tags, fused parts or gaps limits assumed): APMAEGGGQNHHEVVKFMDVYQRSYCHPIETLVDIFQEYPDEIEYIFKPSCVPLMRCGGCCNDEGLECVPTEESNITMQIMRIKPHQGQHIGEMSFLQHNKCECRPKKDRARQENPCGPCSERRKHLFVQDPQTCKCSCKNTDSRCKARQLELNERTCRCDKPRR
method notes: BLI, VEGF 165 on probe, t = 0 (repeats Table 15); limit of detection
measured attribute: Kd

Reference set (5 entries):
{"columns": ["binder", "Kd"],
 "data": [
  ["Conjugate 19 (anti-VEGF VHH SEQ ID NO: 91 on hyaluronic acid, intermediate 2-6) (VHH, peptide bound through the organic linker MP2H to hyaluronic acid (830 kDa); site of attachment not stated, Multivalent peptide-hyaluronic acid conjugate (MVP); peptide valency 108; Method 2 intermediate; also called BI VHH anti-VEGF MVP) VHH: DVQLVESGGGLVQPGGSLRLSCAASGRTFSSYSMGWFRQAPGKEREFVVAISKGGYKYDAVSLEGRFTISRDNAKNTVYLQINSLRPEDTAVYYCASSRAYGSSRLRLADTYEYWGQGTLVTVSS", "< 1 pM"],
  ["Conjugate 21 (anti-VEGF VHH SEQ ID NO: 91 with aH linker SEQ ID NO: 21 on hyaluronic acid, intermediate 1-9) (VHH, C-terminal Cys of the peptide linker bound by its thiol to the maleimide of the organic linker MP2H on hyaluronic acid (830 kDa), Multivalent peptide-hyaluronic acid conjugate (MVP); peptide valency 51; Method 1 intermediate; also called BI VHH anti-VEGF MVP) VHH: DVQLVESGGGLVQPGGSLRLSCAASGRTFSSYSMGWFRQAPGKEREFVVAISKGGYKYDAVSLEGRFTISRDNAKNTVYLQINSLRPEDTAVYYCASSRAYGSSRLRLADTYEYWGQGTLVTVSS", "< 1 pM"],
  ["Conjugate 16 (anti-VEGF VHH SEQ ID NO: 91 with aH linker SEQ ID NO: 21 on hyaluronic acid, intermediate 2-6) (VHH, C-terminal Cys of the peptide linker bound by its thiol to the maleimide of the organic linker MP2H on hyaluronic acid (830 kDa), Multivalent peptide-hyaluronic acid conjugate (MVP); peptide valency 101; Method 2 intermediate; also called BI VHH anti-VEGF MVP) VHH: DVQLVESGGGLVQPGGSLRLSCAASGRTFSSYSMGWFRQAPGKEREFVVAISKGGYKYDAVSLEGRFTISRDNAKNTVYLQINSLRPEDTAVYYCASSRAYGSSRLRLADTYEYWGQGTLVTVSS", "< 1 pM"],
  ["Conjugate 18 (anti-VEGF VHH SEQ ID NO: 91 on hyaluronic acid, intermediate 1-7) (VHH, peptide bound through the organic linker MP2H to hyaluronic acid (830 kDa); site of attachment not stated, Multivalent peptide-hyaluronic acid conjugate (MVP); peptide valency 88; Method 1 intermediate; also called BI VHH anti-VEGF MVP) VHH: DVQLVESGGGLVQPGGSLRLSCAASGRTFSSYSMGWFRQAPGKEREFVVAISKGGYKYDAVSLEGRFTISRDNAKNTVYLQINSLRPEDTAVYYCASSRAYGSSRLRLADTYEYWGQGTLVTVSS", "< 1 pM"],
  ["Conjugate 2 (anti-VEGF DARPin SEQ ID NO: 92 on hyaluronic acid, intermediate 1-7) (designed binder, peptide bound through the organic linker MP2H to hyaluronic acid (830 kDa); site of attachment not stated, Multivalent peptide-hyaluronic acid conjugate (MVP); peptide valency 117; Method 1 intermediate; also called DARPin MVP (Method 1)) GSDLDKKLLEAARAGQDDEVRILMANGADVNARDSTGWTPLHLAAPWGHPEIVEVLLKNGADVNAADFQGWTPLHLAAAVGHLEIVEVLLKYGADVNAQDKFGKTAFDISIDNGNEDLAEILQKAAGGGSGGGS", "< 1 pM"]
]}

**Query** Provide Kd value for the following binder: Conjugate 22 (anti-VEGF VHH SEQ ID NO: 91 with aH linker SEQ ID NO: 21 on hyaluronic acid, intermediate 1-10) (VHH, C-terminal Cys of the peptide linker bound by its thiol to the maleimide of the organic linker MP2H on hyaluronic acid (830 kDa), Multivalent peptide-hyaluronic acid conjugate (MVP); peptide valency 18; Method 1 intermediate; also called BI VHH anti-VEGF MVP) VHH: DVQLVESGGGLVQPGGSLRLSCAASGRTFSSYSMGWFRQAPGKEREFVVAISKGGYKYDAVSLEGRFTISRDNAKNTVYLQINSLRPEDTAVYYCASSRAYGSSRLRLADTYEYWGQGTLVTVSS
**Result** < 1 pM

**Query** Report Kd for Conjugate 20 (anti-VEGF VHH SEQ ID NO: 91 on hyaluronic acid, intermediate 2-8) (VHH, peptide bound through the organic linker MP2H to hyaluronic acid (830 kDa); site of attachment not stated, Multivalent peptide-hyaluronic acid conjugate (MVP); peptide valency 91; Method 2 intermediate; also called BI VHH anti-VEGF MVP) VHH: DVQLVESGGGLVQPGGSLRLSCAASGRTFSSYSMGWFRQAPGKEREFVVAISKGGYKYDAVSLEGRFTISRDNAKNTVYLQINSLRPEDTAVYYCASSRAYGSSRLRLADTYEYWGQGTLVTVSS
**Result** < 1 pM

**Query** Give Kd for the following binder: Conjugate 23 (anti-VEGF VHH SEQ ID NO: 91 with aH linker SEQ ID NO: 21 on hyaluronic acid, intermediate 1-11) (VHH, C-terminal Cys of the peptide linker bound by its thiol to the maleimide of the organic linker MP2H on hyaluronic acid (830 kDa), Multivalent peptide-hyaluronic acid conjugate (MVP); peptide valency 33; Method 1 intermediate; also called BI VHH anti-VEGF MVP) VHH: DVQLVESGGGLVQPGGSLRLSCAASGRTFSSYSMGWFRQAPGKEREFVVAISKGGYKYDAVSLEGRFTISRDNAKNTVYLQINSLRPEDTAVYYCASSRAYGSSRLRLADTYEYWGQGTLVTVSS
**Result** < 1 pM
